assay: physchem; conditions: 25 °C, pH 4, aqueous buffer, thermodynamic from solid
MEASUREMENT_TYPE: solubility

Query :: // query solubility value for entry "CCc1c(N2CC[C@H](O)C2=O)cccc1S(=O)(=O)N[C@@H](CNC(=O)c1ccc(Cl)s1)C(=O)OCCc1nccn1C.Cl"
Result :: > 500 mg/mL
